# Tested System: D816V Kit (Homo sapiens, UniProt P10721, D816V)
# Sequence (P10721 26-976 D816V): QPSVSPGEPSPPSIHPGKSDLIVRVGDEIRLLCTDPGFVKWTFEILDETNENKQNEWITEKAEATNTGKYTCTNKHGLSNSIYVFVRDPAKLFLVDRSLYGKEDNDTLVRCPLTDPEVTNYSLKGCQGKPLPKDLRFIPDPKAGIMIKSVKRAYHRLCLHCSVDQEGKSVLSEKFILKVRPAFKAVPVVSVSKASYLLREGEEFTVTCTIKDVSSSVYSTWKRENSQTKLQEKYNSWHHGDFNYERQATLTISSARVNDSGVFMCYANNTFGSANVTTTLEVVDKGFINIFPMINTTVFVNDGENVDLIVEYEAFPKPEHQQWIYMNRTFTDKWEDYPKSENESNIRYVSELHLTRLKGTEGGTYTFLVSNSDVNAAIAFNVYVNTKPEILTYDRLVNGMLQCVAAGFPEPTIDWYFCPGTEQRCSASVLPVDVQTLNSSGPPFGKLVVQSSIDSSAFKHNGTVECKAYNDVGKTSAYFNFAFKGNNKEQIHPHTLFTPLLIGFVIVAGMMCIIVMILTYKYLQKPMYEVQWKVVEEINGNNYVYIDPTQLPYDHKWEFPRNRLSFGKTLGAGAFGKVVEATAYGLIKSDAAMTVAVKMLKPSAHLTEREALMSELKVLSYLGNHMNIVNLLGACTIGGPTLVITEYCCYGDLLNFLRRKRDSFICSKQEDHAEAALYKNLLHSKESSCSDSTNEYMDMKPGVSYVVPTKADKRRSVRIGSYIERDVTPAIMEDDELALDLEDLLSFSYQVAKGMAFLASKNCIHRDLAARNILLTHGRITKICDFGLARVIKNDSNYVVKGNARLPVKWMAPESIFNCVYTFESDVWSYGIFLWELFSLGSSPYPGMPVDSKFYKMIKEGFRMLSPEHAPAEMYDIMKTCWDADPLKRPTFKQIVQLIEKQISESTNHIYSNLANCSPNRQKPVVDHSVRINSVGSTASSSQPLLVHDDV
# Protocol: Kit D816V assay at Km (Caliper electrophoretic mobility shift)
# Condition Description: D816V Kit 0.5 nM, 15 uM ATP (Km), 1 uM Srctide, 25 C, 90 minutes; read-out: Biochemical Activity D816V IC50
pIC50: −log10 of the molar value.
Attribute Measured: pIC50

Item Cn1cc(-c2cc3c(-c4ccc(NC(=O)Cc5ccc(Cl)cc5Cl)cc4)ncnn3c2)cn1 [Compound 54] with D816V Kit (Homo sapiens, UniProt P10721, D816V) - pIC50?
8.00 to 9.00

Item Cn1cc(-c2cc3c(-c4ccc(NC(=O)C(O)c5ccc(Cl)cc5)cc4)ncnn3c2)cn1 (stereo not shown) [Compound 33] with D816V Kit (Homo sapiens, UniProt P10721, D816V) - pIC50?
8.00 to 9.00

Item O=S(=O)(Nc1ccc(-c2ncnn3cc(-c4ccc(F)cc4)cc23)cc1)c1ccc(Cl)cc1 [Compound 55] with D816V Kit (Homo sapiens, UniProt P10721, D816V) - pIC50?
< 7.00

Item Cn1cc(-c2cc3c(-c4ccc(NC(=O)NCc5ccccc5)cc4)ncnn3c2)cn1 [Compound 9] with D816V Kit (Homo sapiens, UniProt P10721, D816V) - pIC50?
7.00 to 8.00

Reference source: patent US10000496B2
